Reference source: patent US20060067886A1

experiment: Biodistribution of radiometal-DOTA-BBN conjugates in CF1 normal mice; conditions: 1 hour post-injection
REPORTED ENDPOINT: Avg % ID, Muscle (% ID)
Answer format: numeric, % ID implied, no suffix.

Lab note: CSCC[C@H](NC(=O)[C@H](CC(C)C)NC(=O)[C@H](Cc1cnc[nH]1)NC(=O)CNC(=O)[C@@H](NC(=O)[C@H](C)NC(=O)[C@H](Cc1c[nH]c2ccccc12)NC(=O)[C@H](CCC(N)=O)NC(=O)CCNC(=O)CN1CCN(CC(=O)O)CCN(CC(=O)O)CCN(CC(=O)O)CC1)C(C)C)C(N)=O [149Pm-DOTA-β-Ala-BBN[7-14]NH2] gave Avg % ID, Muscle of 0.00

Per the records, this compound ( CSCC[C@H](NC(=O)[C@H](CC(C)C)NC(=O)[C@H](Cc1cnc[nH]1)NC(=O)CNC(=O)[C@@H](NC(=O)[C@H](C)NC(=O)[C@H](Cc1c[nH]c2ccccc12)NC(=O)[C@H](CCC(N)=O)NC(=O)CCCCCCCNC(=O)CN1CCN(CC(=O)O)CCN(CC(=O)O)CCN(CC(=O)O)CC1)C(C)C)C(N)=O [177Lu-DOTA-8-Aoc-BBN[7-14]NH2] [metal not drawn] ) has Avg % ID, Muscle equal to 0.02

The value of Avg % ID, Muscle measured for the compound CSCC[C@H](NC(=O)[C@H](CC(C)C)NC(=O)[C@H](Cc1c[nH]cn1)NC(=O)CNC(=O)[C@@H](NC(=O)[C@H](C)NC(=O)[C@H](Cc1c[nH]c2ccccc12)NC(=O)[C@H](CCC(N)=O)NC(=O)CCCCCCCCCCNC(=O)CN1CCN(CC(=O)O)CCN(CC(=O)O)CCN(CC(=O)O)CC1)C(C)C)C(N)=O [177Lu-DOTA-11-Aun-BBN[7-14]NH2] [metal not drawn] turned out to be 0.11

For reference, reported Avg % ID, Muscle for CSCC[C@H](NC(=O)[C@H](CC(C)C)NC(=O)[C@H](Cc1c[nH]cn1)NC(=O)CNC(=O)[C@@H](NC(=O)[C@H](C)NC(=O)[C@H](Cc1c[nH]c2ccccc12)NC(=O)[C@H](CCC(N)=O)NC(=O)CCCCNC(=O)CN1CCN(CC(=O)O)CCN(CC(=O)O)CCN(CC(=O)O)CC1)C(C)C)C(N)=O [177Lu-DOTA-5-Ava-BBN[7-14]NH2] [metal not drawn] stands at 0.09

Avg % ID, Muscle reading for CSCC[C@H](NC(=O)[C@H](CC(C)C)NC(=O)[C@H](Cc1cnc[nH]1)NC(=O)CNC(=O)[C@@H](NC(=O)[C@H](C)NC(=O)[C@H](Cc1c[nH]c2ccccc12)NC(=O)[C@H](CCC(N)=O)NC(=O)CCNC(=O)CN1CCN(CC(=O)O)CCN(CC(=O)O)CCN(CC(=O)O)CC1)C(C)C)C(N)=O [177Lu-DOTA-β-Ala-BBN[7-14]NH2] [metal not drawn] : 0.11

The reported Avg % ID, Muscle of the compound CSCC[C@H](NC(=O)[C@H](CC(C)C)NC(=O)[C@H](Cc1c[nH]cn1)NC(=O)CNC(=O)[C@@H](NC(=O)[C@H](C)NC(=O)[C@H](Cc1c[nH]c2ccccc12)NC(=O)[C@H](CCC(N)=O)NC(=O)CCCCCCCCCCNC(=O)CN1CCN(CC(=O)O)CCN(CC(=O)O)CCN(CC(=O)O)CC1)C(C)C)C(N)=O [111In-DOTA-11-Aun-BBN[7-14]NH2] [metal not drawn] was 0.02
